details: in propionic acid, 303.15 K
readout: solubility (mole fraction)
Just the number, please, no unit attached.

Q: Return reported solubility (mole fraction). Input compound: CN1COCN(Cc2cnc(Cl)s2)C1=N[N+](=O)[O-]
Result: 0.00329

====

details: in methanol, 318.15 K
readout: solubility (mole fraction)
Just the number, please, no unit attached.

Q: Return reported solubility (mole fraction). Input molecule: CN1COCN(Cc2cnc(Cl)s2)C1=N[N+](=O)[O-]
Result: 0.00486

====

details: in 2-ethoxyethanol, 308.15 K
readout: solubility (mole fraction)
Just the number, please, no unit attached.

Q: Return reported solubility (mole fraction). Input compound: CN1COCN(Cc2cnc(Cl)s2)C1=N[N+](=O)[O-]
Result: 0.01

====

details: in 2-methoxyethanol, 303.15 K
readout: solubility (mole fraction)
Just the number, please, no unit attached.

Q: Return reported solubility (mole fraction). Input molecule: CN1COCN(Cc2cnc(Cl)s2)C1=N[N+](=O)[O-]
Result: 0.0185

====

details: in 2-methoxyethanol, 323.15 K
readout: solubility (mole fraction)
Just the number, please, no unit attached.

Q: Return reported solubility (mole fraction). Input compound: CN1COCN(Cc2cnc(Cl)s2)C1=N[N+](=O)[O-]
Result: 0.0374

====

details: in methanol, 313.15 K
readout: solubility (mole fraction)
Just the number, please, no unit attached.

Q: Return reported solubility (mole fraction). Input molecule: CN1COCN(Cc2cnc(Cl)s2)C1=N[N+](=O)[O-]
Result: 0.00397

====

conditions: in 2-methoxyethanol, 293.15 K
readout: solubility (mole fraction)
Just the number, please, no unit attached.

Q: Return reported solubility (mole fraction). Input compound: CN1COCN(Cc2cnc(Cl)s2)C1=N[N+](=O)[O-]
Result: 0.013

====

details: in methanol, 298.15 K
readout: solubility (mole fraction)
Just the number, please, no unit attached.

Q: Return reported solubility (mole fraction). Input compound: CN1COCN(Cc2cnc(Cl)s2)C1=N[N+](=O)[O-]
Result: 0.00169

====

conditions: in 2-ethoxyethanol, 303.15 K
readout: solubility (mole fraction)

Q: Return reported solubility (mole fraction). Input molecule: CN1COCN(Cc2cnc(Cl)s2)C1=N[N+](=O)[O-]
Result: 0.00839

====

conditions: in acetonitrile, 278.15 K
readout: solubility (mole fraction)
Just the number, please, no unit attached.

Q: Return reported solubility (mole fraction). Input molecule: CN1COCN(Cc2cnc(Cl)s2)C1=N[N+](=O)[O-]
Result: 0.00704

====

settings: in DMSO, 313.15 K
readout: solubility (mole fraction)
Just the number, please, no unit attached.

Q: Return reported solubility (mole fraction). Input compound: CN1COCN(Cc2cnc(Cl)s2)C1=N[N+](=O)[O-]
Result: 0.134

====

conditions: in 2-ethoxyethanol, 323.15 K
readout: solubility (mole fraction)
Just the number, please, no unit attached.

Q: Return reported solubility (mole fraction). Input compound: CN1COCN(Cc2cnc(Cl)s2)C1=N[N+](=O)[O-]
Result: 0.0168

====

details: in methanol, 303.15 K
readout: solubility (mole fraction)
Just the number, please, no unit attached.

Q: Return reported solubility (mole fraction). Input compound: CN1COCN(Cc2cnc(Cl)s2)C1=N[N+](=O)[O-]
Result: 0.00225

====

settings: in 1,4-dioxane, 323.15 K
readout: solubility (mole fraction)
Just the number, please, no unit attached.

Q: Return reported solubility (mole fraction). Input compound: CN1COCN(Cc2cnc(Cl)s2)C1=N[N+](=O)[O-]
Result: 0.0123
